Values were extracted from patent US20240209053A1.

# experimental.target: ferroportin (Homo sapiens, UniProt Q9NP59)
# Sequence (Q9NP59 1-571): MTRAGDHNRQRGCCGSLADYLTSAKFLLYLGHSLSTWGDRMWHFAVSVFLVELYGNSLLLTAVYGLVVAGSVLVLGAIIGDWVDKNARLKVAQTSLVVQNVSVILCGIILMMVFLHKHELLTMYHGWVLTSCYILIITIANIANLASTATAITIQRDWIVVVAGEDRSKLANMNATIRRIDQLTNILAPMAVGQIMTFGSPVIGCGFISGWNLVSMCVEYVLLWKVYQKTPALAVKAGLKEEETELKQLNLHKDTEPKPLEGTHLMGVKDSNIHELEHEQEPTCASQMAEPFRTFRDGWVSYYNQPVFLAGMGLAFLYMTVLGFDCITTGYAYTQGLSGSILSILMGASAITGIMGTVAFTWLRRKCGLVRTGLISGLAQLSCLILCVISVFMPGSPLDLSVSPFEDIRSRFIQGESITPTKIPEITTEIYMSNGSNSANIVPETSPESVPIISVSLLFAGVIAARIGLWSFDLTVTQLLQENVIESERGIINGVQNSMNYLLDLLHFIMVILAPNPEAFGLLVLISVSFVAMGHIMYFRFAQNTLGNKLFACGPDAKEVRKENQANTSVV
# method.description: T47D cell-based ferroportin internalization assay in presence of 0.5% mouse serum albumin (MSA)
# test.settings: T47D cells
# Experimental: The potency of the peptides in causing ferroportin internalization was evaluated in a T47D cell-based assay. […] In this internalization assay, the potency of the test peptides was evaluated in presence of serum albumin which is the main protein component in the blood. […] The Median Fluorescence Intensity (MFI) of the AF647-positive population was measured (after removing dead cells and non-singlets from the analysis). […]
pIC50: −log10 of the molar value. Numbered stars: 1 amine (or outer) side, 2 acyl side, 3 side chain; on linkers, the order of the positions; unused ones are H or OH. Bridge positions count the residues as written; N and C are the ends. Square brackets hold non-standard residues; d marks the D form. Side chains are listed from the residue outwards. Peptide text beside a SMILES is read from it. * marks the point of attachment. Dip = N[C@H](C(=O)O)C(c1ccccc1)c1ccccc1; Hag = O=C([C@H](CCC=[*:3])N[*:1])[*:2]; Palmitoyl = CCCCCCCCCCCCCCCC(=O)*; tBuAla = CC(C)(C)C[C@H](N)C(=O)O; Isovaleryl = CC(C)CC(=O)*; Ahx = NCCCCCC(=O)O
Each entry below carries its recorded pIC50.

Please review the following examples before continuing.
>>> value_observed("CCCCCCCCCCCCCCCC(=O)NCCCCCC(=O)NCCCC[C@H](NC(=O)[C@H](CC(C)(C)C)NC(=O)[C@@H]1CCC=CCC[C@H](NC(=O)CC(C)C)C(=O)N[C@@H]([C@@H](C)O)C(=O)N[C@@H](Cc2c[nH]cn2)C(=O)N[C@@H](C(c2ccccc2)c2ccccc2)C(=O)N2CCC[C@H]2C(=O)N[C@@H](C)C(=O)N[C@@H]([C@@H](C)CC)C(=O)N1)C(=O)N[C@H](CCCCN)C(N)=O [Compd 64] (Isovaleryl-[Hag]TH[Dip]PAI[Hag][tBuAla]K([Ahx-Palmitoyl])[dK]-NH2; staple 1-8)")
"7.00 to 8.00"
>>> value_observed("CCCCCCCCCCCCCCCC(=O)NCCCCCC(=O)NCCCC[C@@H](C(=O)N[C@H](CCCCN)C(N)=O)N(C)C(=O)C[C@H](Cc1ccccc1)NC(=O)[C@@H]1CCC=CCC[C@H](NC(=O)CC(C)C)C(=O)N[C@@H]([C@@H](C)O)C(=O)N[C@@H](Cc2c[nH]cn2)C(=O)N[C@@H](C(c2ccccc2)c2ccccc2)C(=O)N2CCC[C@H]2C(=O)N[C@@H](C)C(=O)N[C@@H]([C@@H](C)CC)C(=O)N1")
"7.00 to 8.00"
>>> value_observed("CCCCCCCCCCCCCCCC(=O)NCCCCCC(=O)NCCCC[C@H](NC(=O)C[C@H](Cc1ccccc1)NC(=O)[C@@H]1CCC=CCC[C@H](NC(=O)CC(C)C)C(=O)N[C@@H]([C@@H](C)O)C(=O)N[C@@H](Cc2c[nH]cn2)C(=O)N[C@@H](C(c2ccccc2)c2ccccc2)C(=O)N2CCC[C@H]2C(=O)N[C@@H](C)C(=O)N[C@@H]([C@@H](C)CC)C(=O)N1)C(=O)N[C@H](CCCCN)C(N)=O [Peptide ID #16]")
"7.00 to 8.00"
>>> value_observed("CCCCCCCCCCCCCCCC(=O)NCCCCCC(=O)NCCCC[C@H](NC(=O)C[C@H](Cc1ccccc1)NC(=O)[C@@H]1CCC=CC[C@H](NC(=O)CC(C)C)C(=O)N[C@@H]([C@@H](C)O)C(=O)N[C@@H](Cc2c[nH]cn2)C(=O)N[C@@H](C(c2ccccc2)c2ccccc2)C(=O)N2CCC[C@H]2C(=O)N[C@@H](C)C(=O)N[C@@H]([C@@H](C)CC)C(=O)N1)C(=O)N[C@H](CCCCN)C(N)=O")
"7.00 to 8.00"

Q: Specify measured pIC50 for CCCCCCCCCCCCCCCC(=O)NCCCCCC(=O)NCCCC[C@H](NC(=O)C[C@H](Cc1ccccc1)NC(=O)[C@H]1CCC=CCCC[C@@H](NC(=O)CC(C)C)C(=O)N[C@@H]([C@@H](C)O)C(=O)N[C@@H](Cc2c[nH]cn2)C(=O)N[C@@H](C(c2ccccc2)c2ccccc2)C(=O)N2CCC[C@H]2C(=O)N[C@@H](C)C(=O)N[C@@H]([C@@H](C)CC)C(=O)N1)C(=O)N[C@H](CCCCN)C(N)=O .
Result: < 6.30
